Molecular target: HvExoI (β-D-glucan glucohydrolase) (Hordeum vulgare, UniProt Q9XEI3, E245A)
Sequence (Q9XEI3 26-630 E245A): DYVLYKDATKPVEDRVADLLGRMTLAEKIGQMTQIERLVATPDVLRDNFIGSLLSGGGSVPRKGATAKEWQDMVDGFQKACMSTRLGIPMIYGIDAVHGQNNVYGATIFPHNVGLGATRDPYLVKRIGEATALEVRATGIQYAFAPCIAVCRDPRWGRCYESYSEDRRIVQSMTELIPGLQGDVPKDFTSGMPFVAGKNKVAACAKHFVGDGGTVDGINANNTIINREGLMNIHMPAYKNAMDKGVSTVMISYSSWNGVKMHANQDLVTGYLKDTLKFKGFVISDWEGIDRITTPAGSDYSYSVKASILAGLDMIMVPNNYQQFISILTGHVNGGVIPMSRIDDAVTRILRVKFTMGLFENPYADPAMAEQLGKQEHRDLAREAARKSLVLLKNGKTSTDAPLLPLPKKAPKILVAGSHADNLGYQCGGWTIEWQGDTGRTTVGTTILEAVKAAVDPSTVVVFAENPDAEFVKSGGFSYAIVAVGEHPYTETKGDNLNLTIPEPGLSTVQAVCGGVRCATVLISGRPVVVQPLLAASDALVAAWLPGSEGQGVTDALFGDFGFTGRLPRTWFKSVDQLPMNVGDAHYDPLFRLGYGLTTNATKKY
Assay: competitive inhibition kinetics with 4NP-Glc
Type: biochemical
MEASURED_ATTRIBUTE: pKi
Bear in mind: pKi is minus log10 of a mol/L concentration; give just that figure.

**Query** Dear colleague, I am looking for the recorded pKi of the following molecule: O=C1O[C@H](CO)[C@@H](O)[C@H](O)[C@H]1O [glucono-δ-lactone]
**Result** 3.99

---

Target: HvExoI (β-D-glucan glucohydrolase) (Hordeum vulgare, UniProt Q9XEI3)
Sequence (Q9XEI3 26-630): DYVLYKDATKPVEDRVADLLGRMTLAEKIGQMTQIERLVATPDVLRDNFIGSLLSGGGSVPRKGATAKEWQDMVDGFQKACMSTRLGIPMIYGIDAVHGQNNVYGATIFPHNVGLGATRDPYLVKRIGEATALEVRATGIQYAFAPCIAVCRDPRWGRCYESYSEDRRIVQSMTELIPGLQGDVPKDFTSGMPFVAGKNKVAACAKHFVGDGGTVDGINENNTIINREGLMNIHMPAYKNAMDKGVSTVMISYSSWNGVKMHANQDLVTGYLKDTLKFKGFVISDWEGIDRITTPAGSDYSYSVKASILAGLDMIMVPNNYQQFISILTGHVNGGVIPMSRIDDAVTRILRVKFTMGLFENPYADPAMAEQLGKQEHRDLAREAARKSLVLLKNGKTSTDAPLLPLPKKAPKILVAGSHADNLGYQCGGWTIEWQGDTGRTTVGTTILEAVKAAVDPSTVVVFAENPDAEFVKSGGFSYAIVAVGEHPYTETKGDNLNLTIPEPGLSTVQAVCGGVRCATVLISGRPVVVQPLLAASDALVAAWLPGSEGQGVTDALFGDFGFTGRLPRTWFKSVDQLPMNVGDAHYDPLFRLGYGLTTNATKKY
MEASURED_ATTRIBUTE: Ki (nM)
Write down the numeric answer in nM and omit the unit.

**Query** Dear colleague, I am looking for the recorded Ki of the following compound: O=[N+]([O-])c1ccc(O[C@H]2O[C@H](CO)[C@@H](O)[C@H](O)[C@H]2F)c([N+](=O)[O-])c1 [2F-DNPGlc]
**Result** 500
